# TEST_PROTOCOL: pharmacokinetics after i.p. injection in mice
# Type: in vivo, mouse
# CONDITION_DESCRIPTION: male, mouse, ip, 0.8 μmol per mouse, plasma, one phase exponential decay fit, 95% CI
# Protocol: Pharmacokinetics was performed through a service provided by the Shanghai Institute of Materia Medica. […] Blood samples (20 μL) were collected at 3 min, 15 min, 45 min, 2 h, 4 h, 8 h, and 24 h through femoral vein phlebotomy. 200 μL of methanol:acetonitrile (1:1, v/v) with internal standard was added to […] of plasma and vortexed thoroughly. […] Samples were analyzed by a TQ-S triple quadrupole mass spectrometer (Waters, Milford, MA, USA). […]
ASSAY_ENDPOINT: half-life

>  <SMILES_CODE>
CC(C)(C)C(=O)/C(=C\c1cccc([N+](=O)[O-])c1)n1cncn1

>  <ASSAY_ENDPOINT>
half-life

>  <RESULT_VALUE>
11.5 to 16.3 min

$$$$
